Listed below: hP2X23/hP2X3* Selectivity (1321N1) values for each entry.
Assay System: human P2X2/3 receptors (Homo sapiens, UniProt P56373+Q9UBL9)
Construct: expressed in transfected cells; host or cells: human astrocytoma 1321N1 (1312N1 [sic])
Experimental Protocol: Intracellular calcium measurement, antagonist activity at human P2X2/3 receptors (hP2X23 1321N1), Fluo8
Assay type: cell-based
Test Conditions: ratio of column 4) hP2X2/3 to column 3) hP2X3, 1321N1
Value Kind: hP2X23/hP2X3* Selectivity (1321N1)

[[record]]
smiles_code = "CC(C)N1Cc2c(n(CC(=O)Nc3ccc(Cl)cn3)c3cc(C(C)(C)C)nn3c2=O)C1=O"
reported_relation = "="
numeric_result = 78

[[record]]
smiles_code = "CC(C)N1Cc2c(n(CC(=O)Nc3ccc(F)cn3)c3cc(CO)nn3c2=O)C1=O"
reported_relation = ">"
numeric_result = 136

[[record]]
smiles_code = "CCc1cc2n(CC(=O)Nc3ccc(F)cn3)c3c(c(=O)n2n1)CN(C[C@@H]1CNCCO1)C3=O"
reported_relation = ">"
numeric_result = 15

[[record]]
smiles_code = "CCc1cc2n(CC(=O)Nc3ccc(F)cn3)c3c(c(=O)n2n1)CN(C[C@H]1CN(C(=O)OC(C)(C)C)CCO1)C3=O"
reported_relation = "="
numeric_result = 17

[[record]]
smiles_code = "CC(C)N1Cc2c(n(CC(=O)Nc3ccc(F)cn3)c3cc(C4CCCCC4)nn3c2=O)C1=O"
reported_relation = "="
numeric_result = 328

[[record]]
smiles_code = "COC[C@H](C)N1Cc2c(n(CC(=O)Nc3ccc(F)cn3)c3cc(-c4ccnc(C)c4)nn3c2=O)C1=O"
reported_relation = "="
numeric_result = 408

[[record]]
smiles_code = "CCc1cc2n(CC(=O)Nc3ccc(F)cn3)c3c(c(=O)n2n1)CN(C[C@H]1CN(C(C)C)CCO1)C3=O"
reported_relation = "="
numeric_result = 30


---

Assay System: human P2X3 receptor (Homo sapiens)
Sequence (P56373 1-397): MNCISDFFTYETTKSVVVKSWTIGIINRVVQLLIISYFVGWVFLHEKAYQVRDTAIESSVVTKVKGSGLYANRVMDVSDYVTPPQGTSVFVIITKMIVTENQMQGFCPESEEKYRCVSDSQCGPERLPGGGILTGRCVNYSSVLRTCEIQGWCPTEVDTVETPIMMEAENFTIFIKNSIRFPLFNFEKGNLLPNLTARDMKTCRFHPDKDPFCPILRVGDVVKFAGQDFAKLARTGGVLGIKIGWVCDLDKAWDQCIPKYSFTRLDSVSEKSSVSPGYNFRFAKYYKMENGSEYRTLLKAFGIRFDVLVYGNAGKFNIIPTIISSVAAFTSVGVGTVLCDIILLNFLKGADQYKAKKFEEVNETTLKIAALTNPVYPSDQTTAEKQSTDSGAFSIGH
Experimental Protocol: Intracellular calcium measurement to assess antagonist activity at human P2X3 receptors (hP2X3 FLIPR)
Format: cell-based
Design: expressed in transfected cells; host or cells: human astrocytoma 1321N1 (1312N1 [sic])
Test Conditions: head prints (1321N1); read-out: 1) hP2X3 IC50 [nM] (1321N1)
Just so you know, the groups by IC50 go like this: bottom range (below 30 nM), center range (30 nM to below 300 nM), top range (300 nM or more)

[[record]]
smiles_code = "CC(C)c1cc2n(CC(=O)Nc3ccc(F)cn3)c3c(c(=O)n2n1)CN(CC(C)(C)O)C3=O"
assay_system = "human P2X3 receptor (Homo sapiens)"
label = "top range"

[[record]]
smiles_code = "CC(C)(C)c1cc2n(CC(=O)Nc3ccc(F)cn3)c3c(c(=O)n2n1)CN(CC1CC1)C3=O"
assay_system = "human P2X3 receptor (Homo sapiens)"
label = "bottom range"

[[record]]
smiles_code = "CC(C)(C)c1cc2n(CC(=O)Nc3ccc(F)cn3)c3c(c(=O)n2n1)CN(CC(=O)N1CCCC1)C3=O"
assay_system = "human P2X3 receptor (Homo sapiens)"
label = "center range"

[[record]]
smiles_code = "CC[C@@H](C)N1Cc2c(n(CC(=O)Nc3ccc(Cl)cn3)c3cc(C(F)(F)F)nn3c2=O)C1=O"
assay_system = "human P2X3 receptor (Homo sapiens)"
label = "bottom range"

[[record]]
smiles_code = "Cc1ccc(NC(=O)Cn2c3c(c(=O)n4nc(C(C)(C)C)cc24)CN(C2CCC2)C3=O)nc1"
assay_system = "human P2X3 receptor (Homo sapiens)"
label = "top range"

[[record]]
smiles_code = "COC[C@H](C)N1Cc2c(n(CC(=O)Nc3ccc(F)cn3)c3cc(C(C)(C)C)nn3c2=O)C1=O"
assay_system = "human P2X3 receptor (Homo sapiens)"
label = "bottom range"

[[record]]
smiles_code = "CC(C)(C)c1cc2n(CC(=O)Nc3ccc(F)cn3)c3c(c(=O)n2n1)CN(C1CCC1)C3=O"
assay_system = "human P2X3 receptor (Homo sapiens)"
label = "center range"

[[record]]
smiles_code = "Cc1ccc(NC(=O)Cn2c3c(c(=O)n4nc(C(C)(C)C)cc24)CN([C@@H](C)C(C)C)C3=O)nc1"
assay_system = "human P2X3 receptor (Homo sapiens)"
label = "top range"

[[record]]
smiles_code = "Cc1ccc(NC(=O)Cn2c3c(c(=O)n4nc(C(F)(F)F)cc24)CN(C(C)C)C3=O)nc1"
assay_system = "human P2X3 receptor (Homo sapiens)"
label = "top range"

[[record]]
smiles_code = "CC(C)c1cc2n(CC(=O)Nc3ccc(Cl)cn3)c3c(c(=O)n2n1)CN(C(C)C)C3=O"
assay_system = "human P2X3 receptor (Homo sapiens)"
label = "center range"


---

Assay System: human P2X3 receptor (Homo sapiens, UniProt P56373)
Sequence (P56373 1-397): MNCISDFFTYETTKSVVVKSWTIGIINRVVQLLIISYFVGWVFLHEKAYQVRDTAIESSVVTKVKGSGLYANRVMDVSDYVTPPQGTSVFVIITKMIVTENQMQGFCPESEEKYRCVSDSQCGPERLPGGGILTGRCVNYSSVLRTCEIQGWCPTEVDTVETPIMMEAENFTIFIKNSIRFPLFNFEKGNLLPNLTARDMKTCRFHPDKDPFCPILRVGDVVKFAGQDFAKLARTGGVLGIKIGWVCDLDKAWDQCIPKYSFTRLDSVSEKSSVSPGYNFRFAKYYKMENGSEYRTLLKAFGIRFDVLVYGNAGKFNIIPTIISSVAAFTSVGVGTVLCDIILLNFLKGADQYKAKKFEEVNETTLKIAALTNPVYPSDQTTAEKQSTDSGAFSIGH
Experimental Protocol: Intracellular calcium measurement to assess antagonist activity at human P2X3 receptors (hP2X3 CHO), photina luminescence
Format: cell-based
Set-up: expressed in transfected cells; host or cells: Chinese hamster ovary (CHO) cells
Test Conditions: column 2), CHO cells, agonist α,β-methylene-ATP at EC50
Value Kind: IC50 (nM)

[[record]]
compound = "CCc1cc2n(CC(=O)Nc3ccc(F)cn3)c3c(c(=O)n2n1)CN(C1CNC1)C3=O [Example 243]"
numeric_result = 230

[[record]]
compound = "CCc1cc2n(CC(=O)Nc3ccc(F)cn3)c3c(c(=O)n2n1)CN(CC(=O)N1CCOCC1)C3=O [Example 291]"
numeric_result = 415

[[record]]
compound = "CC(C)N1Cc2c(n(CC(=O)Nc3ccc(F)cn3)c3cc(N4CCOCC4)nn3c2=O)C1=O [Example 180]"
numeric_result = 175

[[record]]
compound = "Cc1ccc(NC(=O)Cn2c3c(c(=O)n4nc(C5CCOCC5)cc24)CN(C(C)C)C3=O)nc1 [Example 59]"
numeric_result = 83

[[record]]
compound = "Cc1ccc(NC(=O)Cn2c3c(c(=O)n4nc(C(C)(C)C)cc24)CN(C(C)C)C3=O)nc1 [Example 4]"
numeric_result = 345

[[record]]
compound = "COCC(C)N1Cc2c(n(CC(=O)Nc3ccc(F)cn3)c3cc(C(=O)N(C)C)nn3c2=O)C1=O (racemic) [Example 140]"
numeric_result = 55

[[record]]
compound = "COC[C@@H](C)N1Cc2c(n(CC(=O)Nc3ccc(F)cn3)c3cc(C)nn3c2=O)C1=O [Example 52]"
numeric_result = 43

[[record]]
compound = "CC(C)N1Cc2c(n(CC(=O)Nc3ccc(F)cn3)c3ccnn3c2=O)C1=O [Example 45]"
numeric_result = 394

[[record]]
compound = "COC[C@H](C)N1Cc2c(n(CC(=O)Nc3ccc(F)cn3)c3cc(C(=O)Nc4ccccc4F)nn3c2=O)C1=O [Example 221]"
numeric_result = 30

[[record]]
compound = "CC(C)N1Cc2c(n(CC(=O)Nc3ccc(F)cn3)c3cc(C(=O)N4CCN(C)CC4)nn3c2=O)C1=O [Example 188]"
numeric_result = 91

[[record]]
compound = "CC[C@H](C)N1Cc2c(n(CC(=O)Nc3ccc(F)cn3)c3cc(C(F)(F)F)nn3c2=O)C1=O [Example 20]"
numeric_result = 375

